// provenance: patent US12509431B2

Porcine Ventricle IC25 values by entry
assay_system: Porcine Ventricle myofibrils (left ventricle of Yucatan minipigs) (Sus scrofa, UniProt P79293)
Construct: Myofibrils from porcine cardiac muscle was isolated from the left ventricle of Yucatan minipigs; tissue Exemplar Genetics; host or cells: left ventricle of Yucatan minipigs
Sequence (P79293 whole entry): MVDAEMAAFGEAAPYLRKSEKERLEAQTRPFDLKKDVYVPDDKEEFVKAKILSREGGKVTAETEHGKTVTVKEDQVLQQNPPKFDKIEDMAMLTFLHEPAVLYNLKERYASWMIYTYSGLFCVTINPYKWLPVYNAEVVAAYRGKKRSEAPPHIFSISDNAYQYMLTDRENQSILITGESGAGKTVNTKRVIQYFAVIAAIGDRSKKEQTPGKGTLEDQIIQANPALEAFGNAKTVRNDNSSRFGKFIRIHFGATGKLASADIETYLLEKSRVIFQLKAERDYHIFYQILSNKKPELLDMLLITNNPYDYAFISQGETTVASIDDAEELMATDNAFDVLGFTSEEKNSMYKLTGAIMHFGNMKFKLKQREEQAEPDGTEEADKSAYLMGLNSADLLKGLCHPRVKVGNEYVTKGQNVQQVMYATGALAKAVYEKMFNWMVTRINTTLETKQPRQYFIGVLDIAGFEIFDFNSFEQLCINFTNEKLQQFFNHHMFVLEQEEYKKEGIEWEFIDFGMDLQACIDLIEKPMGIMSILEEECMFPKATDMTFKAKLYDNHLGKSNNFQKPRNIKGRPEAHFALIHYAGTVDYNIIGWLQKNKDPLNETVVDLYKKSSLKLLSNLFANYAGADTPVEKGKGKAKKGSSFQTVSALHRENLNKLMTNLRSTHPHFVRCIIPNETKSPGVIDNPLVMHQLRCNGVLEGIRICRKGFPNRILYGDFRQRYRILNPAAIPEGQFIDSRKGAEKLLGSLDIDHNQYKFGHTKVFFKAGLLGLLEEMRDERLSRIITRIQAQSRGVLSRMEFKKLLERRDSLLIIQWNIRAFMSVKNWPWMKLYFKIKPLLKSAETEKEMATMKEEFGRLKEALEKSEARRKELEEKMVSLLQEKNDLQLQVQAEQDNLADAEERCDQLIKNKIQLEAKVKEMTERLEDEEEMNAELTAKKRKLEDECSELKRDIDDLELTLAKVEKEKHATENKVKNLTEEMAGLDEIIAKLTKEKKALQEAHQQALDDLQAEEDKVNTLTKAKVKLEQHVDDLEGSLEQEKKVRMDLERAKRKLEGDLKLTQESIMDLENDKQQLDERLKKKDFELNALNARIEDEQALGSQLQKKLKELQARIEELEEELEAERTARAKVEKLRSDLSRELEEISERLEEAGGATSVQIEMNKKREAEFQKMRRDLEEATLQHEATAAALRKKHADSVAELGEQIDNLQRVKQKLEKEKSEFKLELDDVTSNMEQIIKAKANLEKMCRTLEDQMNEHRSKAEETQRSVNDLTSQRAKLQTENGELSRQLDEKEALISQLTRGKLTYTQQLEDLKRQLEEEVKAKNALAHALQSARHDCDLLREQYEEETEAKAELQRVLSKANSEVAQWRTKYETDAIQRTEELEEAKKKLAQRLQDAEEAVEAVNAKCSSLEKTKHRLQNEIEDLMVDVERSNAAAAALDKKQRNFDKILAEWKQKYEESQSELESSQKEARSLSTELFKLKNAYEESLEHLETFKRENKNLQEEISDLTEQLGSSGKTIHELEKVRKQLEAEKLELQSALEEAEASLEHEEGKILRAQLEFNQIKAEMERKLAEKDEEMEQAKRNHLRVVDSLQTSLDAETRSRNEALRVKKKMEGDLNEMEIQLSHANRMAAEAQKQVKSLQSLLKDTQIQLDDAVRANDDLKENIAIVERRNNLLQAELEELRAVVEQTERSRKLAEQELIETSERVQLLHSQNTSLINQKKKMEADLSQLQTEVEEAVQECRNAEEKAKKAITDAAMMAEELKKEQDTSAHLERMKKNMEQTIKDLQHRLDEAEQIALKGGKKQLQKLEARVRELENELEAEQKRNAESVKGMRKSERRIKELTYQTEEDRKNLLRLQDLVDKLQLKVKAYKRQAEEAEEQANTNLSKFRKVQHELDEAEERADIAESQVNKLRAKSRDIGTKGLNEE
measurement_notes: Myofibril ATPase assay (PK/LDH NADH-coupled), ventricle myofibrils
Assay type: biochemical
protocol_conditions: Table 8
Procedure: Myofibril ATPase assays are known in the art to be useful in evaluating small molecules for the treatment of HCM and other cardiac indications. Myosin ATPase activity is assessed by using a coupled reaction system, in which ADP generated by the myosin ATPase function is coupled to the disappearance of NADH through the pyruvate kinase/lactate dehydrogenase (PK-LDH) system. ATPase activity produces ADP, which is used as a substrate for PK to produce pyruvate and regenerate ATP. […]
Give the value, in units of µM, as a plain number.

Challenge: I would be grateful if you could share the reported Porcine Ventricle IC25 for C[C@@H](NC(=O)CN1Cc2c(ccc(F)c2F)NC1=O)c1cc(C#N)c(F)cn1 .
Response given: 1.456

---
Challenge: I would be grateful if you could share the reported Porcine Ventricle IC25 for C[C@H](NC(=O)CN1Cc2c(ccc(F)c2F)NC1=O)c1ncc(C2COC2)cn1 .
Response given: 6.49

Challenge: I would be grateful if you could share the reported Porcine Ventricle IC25 for Cc1ccnnc1[C@@H](C)NC(=O)CN1Cc2c(ccc(F)c2F)NC1=O .
Response given: 100

Challenge: I would be grateful if you could share the reported Porcine Ventricle IC25 for C[C@@H](NC(=O)CN1Cc2cc(F)ccc2NC1=O)c1ccc(C#N)cn1 .
Response given: 100

* * *

Potency, Full-length myosin + exchanged human ventricle RLC values by entry
assay_system: myosin+human ventricle RLC (Sus scrofa)
Construct: Full-length myosin was resuspended to 1 mg/mL
Sequence (P79293 whole entry): as above
measurement_notes: NADH-coupled actin-activated ATPase assay, myosin + human ventricle RLC
Assay type: biochemical
protocol_conditions: 2 μM myosin, rabbit skeletal actin, 25° C., 1% DMSO
Give the value, in units of nM, as a plain number.

Challenge: I would be grateful if you could share the reported Potency, Full-length myosin + exchanged human ventricle RLC for C[C@H](NC(=O)CN1Cc2cc(F)ccc2NC1=O)c1ccc(F)cc1F [Compound B247] .
Response given: 1020

Challenge: I would be grateful if you could share the reported Potency, Full-length myosin + exchanged human ventricle RLC for C[C@H](NC(=O)CN1Cc2c(ccc(F)c2F)NC1=O)c1ccc(C#N)cc1F [Compound B189] .
Response given: 330

Challenge: I would be grateful if you could share the reported Potency, Full-length myosin + exchanged human ventricle RLC for O=C(CN1Cc2c(ccc(F)c2F)NC1=O)N[C@@H]1COc2cc(F)cc(F)c21 [Compound B147] .
Response given: 480

Challenge: I would be grateful if you could share the reported Potency, Full-length myosin + exchanged human ventricle RLC for C[C@@H](NC(=O)CN1Cc2c(ccc(F)c2F)NC1=O)c1ncc(C#N)cc1F [Compound B141] .
Response given: 13900

Challenge: I would be grateful if you could share the reported Potency, Full-length myosin + exchanged human ventricle RLC for C[C@H](NC(=O)CN1Cc2cc(F)ccc2NC1=O)c1ccc(C#N)cn1 [Compound B172] .
Response given: 14390

Challenge: I would be grateful if you could share the reported Potency, Full-length myosin + exchanged human ventricle RLC for C[C@H](NC(=O)CN1C(=O)Nc2cccnc2C12CC2)c1ncc(C#N)cc1F [Compound N26] .
Response given: 1920

Challenge: I would be grateful if you could share the reported Potency, Full-length myosin + exchanged human ventricle RLC for C[C@H](NC(=O)CN1Cc2c(ccc(F)c2F)NC1=O)c1ncc(F)cc1F [Compound B191] .
Response given: 440

Challenge: I would be grateful if you could share the reported Potency, Full-length myosin + exchanged human ventricle RLC for N#Cc1cnc2c(c1)OCC2NC(=O)CN1Cc2c(ccc(F)c2F)NC1=O (single isomer, unassigned) [Compound B65] .
Response given: 690
